Recorded pEC50 by entry
# experimental.target: T1, human CD22, full length, on CHO-K1-human CD22 2C4 cells (human, UniProt P20273 20-847)
# T1 construct: Full-length human CD22 (NCBI NP_001762.2) stably transfected into CHO-K1
# T1 sequence: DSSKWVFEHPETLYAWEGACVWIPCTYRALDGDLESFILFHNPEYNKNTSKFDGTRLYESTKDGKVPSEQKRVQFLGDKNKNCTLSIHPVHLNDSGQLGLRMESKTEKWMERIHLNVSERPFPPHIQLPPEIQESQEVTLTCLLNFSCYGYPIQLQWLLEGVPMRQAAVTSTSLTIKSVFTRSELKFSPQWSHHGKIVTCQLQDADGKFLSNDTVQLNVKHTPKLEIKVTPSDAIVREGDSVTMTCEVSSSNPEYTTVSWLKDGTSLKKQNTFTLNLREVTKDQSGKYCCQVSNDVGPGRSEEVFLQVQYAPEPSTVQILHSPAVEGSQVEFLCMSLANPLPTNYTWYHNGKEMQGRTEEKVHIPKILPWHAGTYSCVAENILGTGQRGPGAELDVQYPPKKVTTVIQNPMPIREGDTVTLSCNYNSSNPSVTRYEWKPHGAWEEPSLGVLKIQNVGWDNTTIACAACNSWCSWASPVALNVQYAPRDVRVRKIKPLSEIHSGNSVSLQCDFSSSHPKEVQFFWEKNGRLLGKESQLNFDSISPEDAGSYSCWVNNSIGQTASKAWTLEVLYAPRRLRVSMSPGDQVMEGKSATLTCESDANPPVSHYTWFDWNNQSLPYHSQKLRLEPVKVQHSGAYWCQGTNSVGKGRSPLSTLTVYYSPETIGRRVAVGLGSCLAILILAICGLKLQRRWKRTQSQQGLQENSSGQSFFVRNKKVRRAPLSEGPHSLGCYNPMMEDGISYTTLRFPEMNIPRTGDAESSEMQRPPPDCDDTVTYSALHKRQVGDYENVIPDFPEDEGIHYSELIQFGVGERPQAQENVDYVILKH
# protocol.notes: FACS, CHO-K1-human CD22 2C4 cells
# Procedure: The required cells were scale-up cultured in a T-75 cell culture flask to the logarithmic growth phase. For the adherent cell CHO-K1, the medium was aspirated, the cells were washed 2 times with PBS buffer, and then digested with trypsin. After the digestion was terminated, the cells were washed 2 times with PBS buffer. […] Data analysis was performed by software (CellQuest) to obtain the mean fluorescence density (MFI)of the cells. […]
pEC50: −log10 of the molar value.
assay.endpoint: pEC50

INSERT INTO measurements (binder, assay_endpoint, meas_value) VALUES
  ('F2.151.13 human-murine chimeric antibody (antibody, human IgG1, lambda, V domains shown, Chimeric, human IgG1 / lambda) VH: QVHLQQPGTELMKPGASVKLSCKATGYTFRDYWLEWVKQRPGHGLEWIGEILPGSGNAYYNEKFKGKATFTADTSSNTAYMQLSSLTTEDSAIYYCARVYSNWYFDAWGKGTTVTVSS VL: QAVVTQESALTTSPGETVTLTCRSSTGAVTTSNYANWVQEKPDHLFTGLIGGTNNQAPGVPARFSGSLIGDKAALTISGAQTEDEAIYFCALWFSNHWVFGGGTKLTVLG', 'pEC50', 8.48),
  ('F2.55.1 human-murine chimeric antibody (antibody, human IgG1, lambda, V domains shown, Chimeric, human IgG1 / lambda; VL tied by name) VH: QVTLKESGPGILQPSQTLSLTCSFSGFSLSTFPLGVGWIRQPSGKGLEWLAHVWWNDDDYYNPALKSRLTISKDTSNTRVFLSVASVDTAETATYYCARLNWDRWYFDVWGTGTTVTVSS VL: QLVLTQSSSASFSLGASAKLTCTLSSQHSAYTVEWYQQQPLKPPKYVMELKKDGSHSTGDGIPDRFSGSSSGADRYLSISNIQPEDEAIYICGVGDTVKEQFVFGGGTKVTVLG', 'pEC50', 9.09),
  ('F2.173.9 human-murine chimeric antibody (antibody, human IgG1, lambda, V domains shown, Chimeric, human IgG1 / lambda) VH: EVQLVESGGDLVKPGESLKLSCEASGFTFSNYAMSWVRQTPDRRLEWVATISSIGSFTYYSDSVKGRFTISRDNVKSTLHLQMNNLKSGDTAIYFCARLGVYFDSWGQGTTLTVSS VL: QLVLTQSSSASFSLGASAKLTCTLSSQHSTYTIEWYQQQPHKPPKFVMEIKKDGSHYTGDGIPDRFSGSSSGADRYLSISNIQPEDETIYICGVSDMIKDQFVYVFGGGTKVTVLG', 'pEC50', 8.91),
  ('HA22-hIgG1 (antibody, V domains shown) VH: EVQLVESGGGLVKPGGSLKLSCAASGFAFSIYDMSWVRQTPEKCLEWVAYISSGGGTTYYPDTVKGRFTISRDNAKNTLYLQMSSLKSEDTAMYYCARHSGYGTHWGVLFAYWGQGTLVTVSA VL: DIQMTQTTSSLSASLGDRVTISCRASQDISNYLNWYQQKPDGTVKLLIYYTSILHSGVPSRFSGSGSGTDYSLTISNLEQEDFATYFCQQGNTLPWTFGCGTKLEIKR', 'pEC50', 8.96);
